Some compounds, each annotated with its measured Plant response rating, B. signalgrass.
Tested on: surinam grass
Experiment: Test B pre/postemergence surinam grass
Format: in vivo, Brachiaria decumbens
Conditions: Preemergence, Rate 62 g/ha; scale 0 to 10 (0 no effect, 10 complete control)
Lab note: jot the number down without any unit.

Some solved cases for reference:
{"compound": "C=C[Si](C)(C)Cn1c(=O)on(C(=O)N(c2ccc(Cl)cc2)C(C)C)c1=O", "Plant response rating, B. signalgrass": 3}
{"compound": "CC1CC1Cn1c(=O)on(C(=O)N(c2ccc(F)cc2)C(C)C)c1=O (stereo not shown)", "Plant response rating, B. signalgrass": 0}

Data request: What Plant response rating, B. signalgrass value was documented for this compound, "CC(C)N(C(=O)n1oc(=O)n(CC2CCC2)c1=O)c1ccc(F)cc1" ?
Data returned: 3

Data request: What Plant response rating, B. signalgrass value was documented for this compound, "CC(C)N(C(=O)n1oc(=O)n(C(CF)CF)c1=O)c1ccc(F)cc1" ?
Data returned: 1

----------
Some compounds, each annotated with its measured Plant response rating (0 to 10; 0 is no effect, 10 is complete control), Sugarbeets.
Tested on: sugar beet
Experiment: Test B pre/postemergence sugar beet
Type: in vivo, Beta vulgaris
Details: Rate 250 g/ha; Postemergence
Lab note: jot the number down without any unit.

Some solved cases for reference:
{"compound": "CC(C)N(C(=O)n1oc(=O)n(CC2CO2)c1=O)c1ccc(F)cc1 (stereo not shown)", "measured.result": 0}
{"compound": "Cc1nc(C)c(-n2c(=O)on(C(=O)N(c3ccc(Cl)cc3)C(C)C)c2=O)s1", "measured.result": 0}
{"compound": "CCN(C(=O)n1oc(=O)n(C)c1=O)C1CCCCC1", "measured.result": 3}

Data request: Entry "Cc1nc(C)c(-n2c(=O)on(C(=O)N(c3ccccc3)C(C)C)c2=O)s1" , system sugar beet: what Plant response rating (0 to 10; 0 is no effect, 10 is complete control), Sugarbeets was measured?
Data returned: 0

----------
Some compounds, each annotated with its measured Cocklebur plant response rating.
Test system: cocklebur
Assay: Test B pre/postemergence cocklebur
Type: in vivo, Xanthium strumarium
Conditions: Preemergence, Rate 250 g/ha; scale 0 (no effect) to 10 (complete control)
Procedure: […] At the same time, these crop and weed species were also treated with postemergence applications of test chemicals formulated in the same manner. […] Treated plants and controls were maintained in a greenhouse for twelve to sixteen days, after which all species were compared to controls and visually evaluated. […]
Lab note: jot the number down without any unit.

Some solved cases for reference:
{"structure.notation": "C#CCCn1c(=O)on(C(=O)N(c2ccc(F)cc2)C(C)C)c1=O", "Cocklebur plant response rating": 0}
{"structure.notation": "CC(C)N(C(=O)n1oc(=O)n(CC2=NOCCO2)c1=O)c1ccc(F)cc1", "Cocklebur plant response rating": 0}
{"structure.notation": "CC(C)N(C(=O)n1oc(=O)n(CCCCCl)c1=O)c1ccc(F)cc1", "Cocklebur plant response rating": 0}

Next compound, please.
Data request: What Cocklebur plant response rating value was documented for this compound, "CCOP(=O)(Cn1c(=O)on(C(=O)N(c2ccc(F)cc2F)C(C)C)c1=O)OCC" ?
Data returned: 2

----------
Tested on: surinam grass
Assay: Test B pre/postemergence surinam grass
Format: in vivo, Brachiaria decumbens
Settings: Postemergence, Rate 125 g/ha; scale 0 to 10, 0 is no effect, 10 is complete control
Some compounds, each annotated with its measured B. signalgrass plant response rating.

Some solved cases for reference:
{"compound": "CC(C)N(C(=O)n1oc(=O)n(CC2=CCCCC2)c1=O)c1ccccc1 [Compound 496]", "B. signalgrass plant response rating": 0}
{"compound": "CC(C)=CCn1c(=O)on(C(=O)N(c2ccc(F)cc2F)C(C)C)c1=O [Compound 515]", "B. signalgrass plant response rating": 0}
{"compound": "CC(C)C(=O)Cn1c(=O)on(C(=O)N(c2ccc(F)cc2F)C(C)C)c1=O [Compound 486]", "B. signalgrass plant response rating": 0}
{"compound": "COCCOCn1c(=O)on(C(=O)N(c2ccc(F)cc2F)C(C)C)c1=O [Compound 505]", "B. signalgrass plant response rating": 3}

Next compound, please.
Data request: What B. signalgrass plant response rating value was documented for this compound, CCOCn1c(=O)on(C(=O)N(c2ccc(Cl)cc2)C(C)C)c1=O [Compound 534] ?
Data returned: 0
